VALUE_KIND: melting point

molecule="O=C(SCCCN1C(=O)NCC1c1ccccc1)c1ccccc1 (stereo unspecified)" value_kind="melting point" experimental_result="112 to 115 °C"
molecule=CCCCCS(=O)(=O)NC(=O)/C=C/c1ccc(OC(COCC)COCC)cc1Oc1ncc(C(F)(F)F)cc1Cl value_kind="melting point" experimental_result="83 to 85.5 °C"
molecule=Cn1cnc2c1c1n[nH]c(=O)n1c(=O)n2Cc1ccccc1 value_kind="melting point" experimental_result="295 °C"
molecule=CCCCc1cc(C(=O)OC)c(N)s1 value_kind="melting point" experimental_result="62 to 63 °C"
molecule=CCCCc1nnc(-c2ccc(N)cc2)o1 value_kind="melting point" experimental_result="125 °C"
molecule=CCOC(=O)c1ccc(CN2CC[C@H](NC(=O)OC(C)(C)C)C2=O)c(C(F)(F)F)c1 value_kind="melting point" experimental_result="93 to 95 °C"
molecule=CCOC(=O)c1csc(-c2ccc([N+](=O)[O-])cc2)n1 value_kind="melting point" experimental_result="156 to 158 °C"
molecule=CN1C[C@H](c2cnccn2)OC1=O value_kind="melting point" experimental_result="114 °C"
molecule=CON(C)C(=O)c1cc(Cl)nc(Cl)c1 value_kind="melting point" experimental_result="69 to 70 °C"
molecule=N#CCCn1nc(-c2ccc(OCc3ccccc3)cc2)sc1=S value_kind="melting point" experimental_result="138 °C"
molecule="CN(C)C1CCCC1Cc1cccc(-c2cccc(N)n2)c1 (stereo unspecified)" value_kind="melting point" experimental_result="60 to 80 °C"
molecule=CCOC(=O)NCCCCCCNC(=O)OCC value_kind="melting point" experimental_result="80 to 82 °C"
molecule=CC(C)C(=O)N(O)Cc1ccc2c(c1)Cc1ccccc1-2 value_kind="melting point" experimental_result="163 to 166 °C"
molecule=CCN(CC)c1ccc(-c2cn(-c3ccc(C4=C(C#N)C(=C(C#N)C#N)OC4(C)C)cc3)nn2)cc1 value_kind="melting point" experimental_result="275 °C"
molecule=Clc1ccc2c(c1)N=C(NCCCn1ccnc1)c1ccccc1N2 value_kind="melting point" experimental_result="228 to 230 °C"
molecule="COc1ccc(C2CCc3cc(OC)ccc3C2C#N)cc1 (stereo unspecified)" value_kind="melting point" experimental_result="92 °C"
molecule=Cc1cc(NC(=O)C(=O)N(C)Cc2ccccc2)cc(C)c1S(=O)(=O)C[N+](=O)[O-] value_kind="melting point" experimental_result="99 to 101 °C"
molecule=CCCCOc1cc(-c2ccccc2)c(OCC(=O)O)c(-c2ccccc2)c1 value_kind="melting point" experimental_result="92 to 94 °C"
molecule=COc1cc2nc(Cl)nc(N3CCN(C(=O)Nc4ccc(Oc5ccccc5)cc4)CC3)c2cc1OC value_kind="melting point" experimental_result="178 to 179 °C"
molecule=Cn1c(S)nnc1COCC(=O)O value_kind="melting point" experimental_result="155 to 156 °C"
molecule=Clc1ccc(-c2nc(COc3ccc(CCCn4ccnc4)cc3)co2)o1 value_kind="melting point" experimental_result="88 to 89 °C"
molecule="COc1ccc2c(c1)c1c(n2Cc2ccccc2)CCCC1C(=O)N1CCN(c2ccccc2)CC1 (stereo unspecified)" value_kind="melting point" experimental_result="142 to 143 °C"
molecule=Cc1cc(-c2ccc(C#N)cc2)cn2cc(-c3ccc(C#N)cc3)nc12 value_kind="melting point" experimental_result="283 to 285 °C"
molecule="CCCCC1(CC)CS(=O)(=O)c2ccccc2N(c2ccccc2)C1=O (stereo unspecified)" value_kind="melting point" experimental_result="57.6 °C"
molecule=Cc1[nH]c(-c2ccccc2)c2nc[nH]c(=O)c12 value_kind="melting point" experimental_result="295 to 296 °C"
molecule=COc1cc(COc2cc(C(=O)O)n(-c3ccccc3)n2)ccc1OCc1nc(-c2ccccc2)oc1C value_kind="melting point" experimental_result="192 to 193 °C"
molecule="O=C1c2ccccc2C(=O)N1CC(=O)N1c2ccccc2N(Cc2cccnc2)C(=O)[C@H]2CCC[C@H]21 (relative stereo)" value_kind="melting point" experimental_result="220 to 223 °C"
molecule=CCCCc1nc2cnc3cc(C)ccc3c2o1 value_kind="melting point" experimental_result="52 to 55 °C"
molecule="Cc1nc2c3c(ccc2n1C)C(=O)N1C(=O)C(C)(C(C)C)N=C31 (stereo unspecified)" value_kind="melting point" experimental_result="258 to 263 °C"
molecule=O=C(Cc1cccs1)c1c(O)c2cccnc2n(-c2ccccc2)c1=O value_kind="melting point" experimental_result="197 to 199 °C"
molecule=CCOC(=O)c1cnn2c1c(O)nc1ccccc12 value_kind="melting point" experimental_result="249 to 251 °C"
molecule=COc1ccc(-c2cc(O)nc(C)n2)cc1 value_kind="melting point" experimental_result="270 to 272 °C"
molecule=O=c1cc(-c2ccncc2)nc2n1CCCCC2 value_kind="melting point" experimental_result="148 to 150 °C"
molecule=CCCCNC(=O)C=C(C)C=CC=C(C)C=Cc1c(C)cc(OC)c(C)c1C value_kind="melting point" experimental_result="178 °C"
molecule=CN1CCCC1=NC(=S)Nc1ccccc1 value_kind="melting point" experimental_result="142 to 144 °C"
molecule=Nc1nc(Cl)cc(OC(F)(F)F)n1 value_kind="melting point" experimental_result="55 to 56 °C"

###

Catalogue of compounds with associated melting point
VALUE_KIND: melting point

compound=CC1(C)C(=O)Nc2cc3[nH]c(-c4ccc(O)cc4)nc3cc21 value_kind="melting point" experimental_result="240 °C"
compound=O=c1ccoc2cccc(OCCCN3CCN(c4ccccc4)CC3)c12 value_kind="melting point" experimental_result="106 to 112 °C"
compound="N=C(N)N1CCC2c3ccccc3CN21 (centres undefined)" value_kind="melting point" experimental_result="233 to 234 °C"
compound=NC(=O)c1cc2c(C=Cc3ccccc3)cncc2s1 value_kind="melting point" experimental_result="257 to 258 °C"

###

Reported melting point values are given for each entry in this list.
VALUE_KIND: melting point

smiles_record=CCOC(=O)c1cc(-c2ccc(Cl)cc2)n(-c2ccc(OC)cc2)n1 value_kind="melting point" experimental_result="107 to 108 °C"
smiles_record=O=C(Nc1ccc(-n2nc(C(F)(F)F)cc2C(F)(F)F)cc1)c1ccc(-n2cccc2)cc1 value_kind="melting point" experimental_result="249 to 252 °C"
smiles_record=CC=CCn1c(C)c(C)c2cnnc(OCc3cccnc3)c21 value_kind="melting point" experimental_result="80 to 81 °C"
smiles_record=COCCn1c(C)cc(C(=O)c2cccc(Cl)c2)c1C value_kind="melting point" experimental_result="112 to 113 °C"
smiles_record=CC(C)c1cccc(C(C)C)c1NC(=O)c1ccccc1N value_kind="melting point" experimental_result="207 to 209 °C"

###

VALUE_KIND: melting point

compound=CC(=O)OCCc1ccc(NC(=O)OCc2ccccc2)cc1 value_kind="melting point" experimental_result="148 to 149 °C"
compound="O=C(O)c1cccc(-c2cccc(CC(=O)N(Cc3ccccc3)C3c4ccccc4CCC3Cc3ccccc3)c2)c1 (configuration not stated)" value_kind="melting point" experimental_result="171 to 172 °C"
compound=CN=C(NC#N)NCCSCc1ccc(CNC)o1 value_kind="melting point" experimental_result="81 to 85 °C"
compound=Nc1ncnc2c1c(-c1ccc(F)cc1)cn2-c1ccccc1 value_kind="melting point" experimental_result="202 to 203 °C"
compound=CC(C)(COc1ccc2nccn2n1)CS(N)(=O)=O value_kind="melting point" experimental_result="165 to 167 °C"
compound=Nc1cc(CNc2ccccc2C(=O)Nc2cccc(C(F)(F)F)c2)ccn1 value_kind="melting point" experimental_result="64 °C"
compound=Cc1ccc(C(=O)N(C)C)cc1-c1nc(NC2CCN(C)CC2)nc2c1CNC(=O)N2c1c(F)cccc1F value_kind="melting point" experimental_result="163 to 165 °C"
compound=CC(C)OC(=O)Nc1ccc(O)c(Cl)c1 value_kind="melting point" experimental_result="89 to 90 °C"
compound=CS(=O)(=O)c1ccc(-n2nc(C(F)(F)F)cc2-c2nc3ccc(Cl)cc3s2)cc1 value_kind="melting point" experimental_result="195 to 196 °C"
compound=CCCCCCN(C)c1ccc(C=C2SC(=S)N(CCNC(=O)C(F)(F)F)C2=O)cc1 value_kind="melting point" experimental_result="136 to 139 °C"
compound=CCOC(=O)[C@H]1O[C@@H]1C(=O)N[C@@H](COCC(C)C)CC(C)C value_kind="melting point" experimental_result="60 to 63 °C"
compound=Cc1oc(-c2ccccc2)nc1CCOc1cccc(OC(C)(C)C(=O)O)c1 value_kind="melting point" experimental_result="140 to 141 °C"

###

VALUE_KIND: melting point

compound="CC1CN(C)c2c(Cl)ccc3c(=O)c(C(=O)O)cn1c23 (stereo unspecified)" value_kind="melting point" experimental_result="243 to 245 °C"
compound=O=C(CCN1CCCCC1)Nc1ccc2[nH]c3ccc(NC(=O)CCN4CCCCC4)cc3c(=O)c2c1 value_kind="melting point" experimental_result="> 320 °C"
compound=CS(=O)(=O)c1ccc(-c2ccccc2Oc2ccccc2)cc1 value_kind="melting point" experimental_result="130 to 131 °C"
compound=CN(CCCCCCCCC(=O)O)c1cnc(-c2ccccc2)c(-c2ccccc2)n1 value_kind="melting point" experimental_result="103 to 105 °C"
compound="N#Cc1csc2c1CCN(C(=O)C(F)(F)F)CC2c1ccccc1 (stereo unspecified)" value_kind="melting point" experimental_result="107 °C"
compound=CC1(C)CCC(C)(C)c2nc(C(=O)CBr)cnc21 value_kind="melting point" experimental_result="> 300 °C"
compound=C=CCn1c(CCl)nc(C(C)C)c1Sc1cccc(Cl)c1 value_kind="melting point" experimental_result="84 to 86 °C"
compound="CCC1(C)C(=O)c2cc(OC)c(Cl)c(Cl)c2C1=O (stereo unspecified)" value_kind="melting point" experimental_result="157 °C"
compound=O=C(O)Cc1cc(C(=O)C=Cc2ccc(Cl)cc2)ccc1O value_kind="melting point" experimental_result="244 °C"
compound=CCC(CC)N1CCN(C(=O)Oc2ccc(OC)cc2)CC1 value_kind="melting point" experimental_result="52 to 54 °C"
compound="COc1ccc(C2=NN(C3CCN(C(=O)N4CCNC4=O)CC3)C(=O)[C@H]3CC=CC[C@@H]23)cc1Cl (relative stereo)" value_kind="melting point" experimental_result="216 to 218 °C"

Origin of values: a melting point compilation (Tetko et al.; mined from patent text by program, amines drawn as free bases though some values may be those of a salt)
